- SYSTEM_UNDER_TEST: T1, recombinant human cardiac troponin T (human, UniProt P45379 2-298)
- T1 construct: In the ECL assay the cTnT came from the Troponin T hs CalSet calibrator; also called cTnT; TnT
- TEST_METHOD_NOTES: SPR (Biacore T200, 37 C), Fab captured, cTnT analyte
MEASUREMENT_KIND: koff (s⁻¹)
Use s⁻¹ as the unit, but write only the number.

Completed entries (count: 2):
>  <BINDER>
anti-cTnT Fab mutant 5 (Y34F, F60W, V101Y + Y104F) (Fab, V domains shown, also called combination 5) VH: EVQLQQSGPELVKPGASVKMSCKASGYTFTDYFMKWVKQSHGKSLEWIGDINPNNGETWYNQKFKDKATLTVDKSSSTAYMQLNSLTSEDSAVYYCATRYFDFWGQGTTLTVSS VL: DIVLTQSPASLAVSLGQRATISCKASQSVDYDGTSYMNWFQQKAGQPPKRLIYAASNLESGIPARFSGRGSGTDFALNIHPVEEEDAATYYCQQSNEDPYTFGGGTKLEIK

>  <koff [s⁻¹]>
0.00057

$$$$
>  <BINDER>
anti-cTnT Fab mutant 23 (F60W, V101Y + Y104F) (Fab, V domains shown, it was tied to mutant 23 by the printed mutations; also called combination 23) VH: EVQLQQSGPELVKPGASVKMSCKASGYTFTDYYMKWVKQSHGKSLEWIGDINPNNGETWYNQKFKDKATLTVDKSSSTAYMQLNSLTSEDSAVYYCATRYFDFWGQGTTLTVSS VL: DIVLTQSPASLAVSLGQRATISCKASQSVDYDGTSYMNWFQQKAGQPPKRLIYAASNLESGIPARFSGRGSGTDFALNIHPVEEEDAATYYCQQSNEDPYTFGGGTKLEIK

>  <koff [s⁻¹]>
0.0034

$$$$

// koff lookup, key: anti-cTnT Fab mutant 8 (Y34F, V101Y + Y104F) (Fab, V domains shown, also called combination 8) VH: EVQLQQSGPELVKPGASVKMSCKASGYTFTDYFMKWVKQSHGKSLEWIGDINPNNGETFYNQKFKDKATLTVDKSSSTAYMQLNSLTSEDSAVYYCATRYFDFWGQGTTLTVSS VL: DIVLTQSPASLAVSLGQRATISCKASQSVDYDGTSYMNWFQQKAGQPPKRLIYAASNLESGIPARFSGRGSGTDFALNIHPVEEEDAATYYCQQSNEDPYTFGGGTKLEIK 0.00052

Then what about the binder anti-cTnT Fab mutant 16 (Y34I, V101Y + Y104F) (Fab, V domains shown, also called combination 16) VH: EVQLQQSGPELVKPGASVKMSCKASGYTFTDYIMKWVKQSHGKSLEWIGDINPNNGETFYNQKFKDKATLTVDKSSSTAYMQLNSLTSEDSAVYYCATRYFDFWGQGTTLTVSS VL: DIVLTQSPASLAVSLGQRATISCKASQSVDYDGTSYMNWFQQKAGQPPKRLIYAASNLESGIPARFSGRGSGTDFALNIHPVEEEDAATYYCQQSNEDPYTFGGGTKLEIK ? 0.0059

Then what about the binder anti-cTnT Fab mutant 18 (V101Y) (Fab, V domains shown, it was tied to mutant 18 by the printed mutation V101Y; also called combination 18) VH: EVQLQQSGPELVKPGASVKMSCKASGYTFTDYYMKWVKQSHGKSLEWIGDINPNNGETFYNQKFKDKATLTVDKSSSTAYMQLNSLTSEDSAVYYCATRYFDYWGQGTTLTVSS VL: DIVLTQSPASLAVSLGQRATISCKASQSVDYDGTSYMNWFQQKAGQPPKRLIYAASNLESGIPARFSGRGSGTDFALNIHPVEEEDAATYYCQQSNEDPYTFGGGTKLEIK ? 0.0047

Then what about the binder anti-cTnT Fab mutant 3 (Y34F, F60W, V101Y) (Fab, V domains shown, also called combination 3) VH: EVQLQQSGPELVKPGASVKMSCKASGYTFTDYFMKWVKQSHGKSLEWIGDINPNNGETWYNQKFKDKATLTVDKSSSTAYMQLNSLTSEDSAVYYCATRYFDYWGQGTTLTVSS VL: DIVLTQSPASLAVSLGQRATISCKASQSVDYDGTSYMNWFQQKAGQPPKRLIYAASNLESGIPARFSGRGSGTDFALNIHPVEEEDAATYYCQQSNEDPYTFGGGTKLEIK ? 0.00079

Then what about the binder anti-cTnT Fab mutant 20 (V101Y + Y104F) (Fab, V domains shown, also called combination 20) VH: EVQLQQSGPELVKPGASVKMSCKASGYTFTDYYMKWVKQSHGKSLEWIGDINPNNGETFYNQKFKDKATLTVDKSSSTAYMQLNSLTSEDSAVYYCATRYFDFWGQGTTLTVSS VL: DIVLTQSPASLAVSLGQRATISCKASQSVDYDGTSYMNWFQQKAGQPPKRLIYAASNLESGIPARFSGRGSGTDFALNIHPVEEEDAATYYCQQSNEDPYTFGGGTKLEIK ? 0.0034

Then what about the binder anti-cTnT Fab mutant 21 (F60W, V101Y) (Fab, V domains shown, also called combination 21) VH: EVQLQQSGPELVKPGASVKMSCKASGYTFTDYYMKWVKQSHGKSLEWIGDINPNNGETWYNQKFKDKATLTVDKSSSTAYMQLNSLTSEDSAVYYCATRYFDYWGQGTTLTVSS VL: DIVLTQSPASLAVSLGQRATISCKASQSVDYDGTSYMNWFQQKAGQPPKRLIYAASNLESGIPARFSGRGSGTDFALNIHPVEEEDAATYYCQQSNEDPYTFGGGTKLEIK ? 0.0043

Then what about the binder anti-cTnT Fab mutant 13 (Y34I, F60W, V101Y + Y104F) (Fab, V domains shown, also called combination 13) VH: EVQLQQSGPELVKPGASVKMSCKASGYTFTDYIMKWVKQSHGKSLEWIGDINPNNGETWYNQKFKDKATLTVDKSSSTAYMQLNSLTSEDSAVYYCATRYFDFWGQGTTLTVSS VL: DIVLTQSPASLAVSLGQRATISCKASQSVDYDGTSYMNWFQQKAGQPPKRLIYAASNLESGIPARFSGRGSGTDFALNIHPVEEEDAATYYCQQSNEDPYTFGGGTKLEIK ? 0.0019

Then what about the binder anti-cTnT Fab mutant 2 (Y34F, F60W) (Fab, V domains shown, also called combination 2) VH: EVQLQQSGPELVKPGASVKMSCKASGYTFTDYFMKWVKQSHGKSLEWIGDINPNNGETWYNQKFKDKATLTVDKSSSTAYMQLNSLTSEDSAVYYCATRVFDYWGQGTTLTVSS VL: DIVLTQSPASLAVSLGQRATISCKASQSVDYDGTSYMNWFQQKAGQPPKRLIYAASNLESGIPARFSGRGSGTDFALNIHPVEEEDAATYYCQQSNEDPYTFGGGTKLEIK ? 0.001
